Entries and their abundance fitness values follow.
B1: Mineralocorticoid receptor, residues 600 to 675; numbered along this chain, P08235 (parent)
chain: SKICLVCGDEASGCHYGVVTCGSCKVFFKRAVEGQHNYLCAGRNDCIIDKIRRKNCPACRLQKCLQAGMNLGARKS

Variants of: B1
Assay: abundance fitness (aPCA) (normalised: wild type 0, dead -1); higher = more abundant; growth selection in yeast, the domain comes from the species named
Conditions: Homo sapiens

# annotated cases, reported abundance fitness shown
| SEQ_TEXT | abundance fitness |
| --- | --- |
| SKICLVCGAEASGCHYGVVTCGSCKVFFKRAVEGQHNYLCAGRNDCIIDKIRRKNCPACRLQKCLQAGMNLGARKS [D9A] | 0.048 |
| SKICLVCGDEASGCHYGVVTCGSCKVFFKRAVEGQHNYLCAGRNDCIIDKIRRKNCPACRLQKCLQAGMNLGARKF [S76F] | -0.119 |
| SKICLVCGDEASGCHYGVVTCGSCKVFFKRAVEGQHNYLCAGRNDCIIDKIRRGNCPACRLQKCLQAGMNLGARKS [K54G] | -0.059 |

Q. Query: abundance fitness; subject: SKICLVCGDEASGCHYGVVTCGSCKVFFKRAVEGQHNYLCAGRNDCIIDKIRRKNCPACRLQKCLQRGMNLGARKS [A67R]
A. -0.053

Q. One more variant: SKICLVCGDEASGCHYGVVTCGSCKVFFKRAVEGQHNYLCAGRNDCIISKIRRKNCPACRLQKCLQAGMNLGARKS [D49S]
A. -0.041

Q. Cool, now SKICLVCGDEASGCHYGVVTCGSCKVFFKRAVELQHNYLCAGRNDCIIDKIRRKNCPACRLQKCLQAGMNLGARKS [G34L]
A. -0.131

Q. Same for SKICLVCGDEASGCHYPVVTCGSCKVFFKRAVEGQHNYLCAGRNDCIIDKIRRKNCPACRLQKCLQAGMNLGARKS [G17P]
A. -0.175

Q. And for SKIGLVCGDEASGCHYGVVTCGSCKVFFKRAVEGQHNYLCAGRNDCIIDKIRRKNCPACRLQKCLQAGMNLGARKS [C4G] ?
A. -0.842

Q. Same for SKICLVCGDEASGCHYGVVTCGSCKVFFKRAVEGQHNYLCAGRNDCIIDKIRRKNCPGCRLQKCLQAGMNLGARKS [A58G]
A. -0.051

Q. Similarly, SKITLVCGDEASGCHYGVVTCGSCKVFFKRAVEGQHNYLCAGRNDCIIDKIRRKNCPACRLQKCLQAGMNLGARKS [C4T] ?
A. -0.837
